# target-system: GTPase-LHL RNA
# assay-procedure: Dabcyl-peptide binding to Fam-labelled RNA (quenching), GTPase LHL
# settings: GTPase-LHL, 110 mM KCl
Ends that are not written are not given here. * marks the point of attachment. DABCYL = CN(C)c1ccc(/N=N/c2ccc(C(=O)*)cc2)cc1
Overview of reported pKd across a group of substances:
Note: pKd values are expressed as the negative base-10 logarithm of concentration in M.

Study these solved cases before continuing.
library peptide Dabcyl-Thr-Arg-Lys-X-X-X-X-X-Arg-Lys-Ser-Gly with X5 = KKKKK :: 7.59
library peptide Dabcyl-Thr-Arg-Lys-X-X-X-X-X-Arg-Lys-Ser-Gly with X5 = RRRRR :: 7.80
library peptide Dabcyl-Thr-Arg-Lys-X-X-X-X-X-Arg-Lys-Ser-Gly with X5 = KKRQR :: 7.37
library peptide Dabcyl-Thr-Arg-Lys-X-X-X-X-X-Arg-Lys-Ser-Gly with X5 = KKQKR :: 7.13
library peptide Dabcyl-Thr-Arg-Lys-X-X-X-X-X-Arg-Lys-Ser-Gly with X5 = KKQRR :: 7.26
library peptide Dabcyl-Thr-Arg-Lys-X-X-X-X-X-Arg-Lys-Ser-Gly with X5 = KKKQR :: 7.12

Kindly review the next substance as well.
DABCYL-Phe-Thr-Thr-Lys-Ala-Leu-Gly-Ile-Ser-Tyr-Gly-Arg-Lys-Lys-Arg-Arg-Gln-Arg-Arg-Arg-Pro-Pro-Gln-Gly-Ser-Gln-Thr-His-Gln-Val-Ser-Leu-Ser-Lys-Gln ({DABCYL}-FTTKALGISYGRKKRRQRRRPPQGSQTHQVSLSKQ) [DABCYL-ADP-1] on GTPase-LHL RNA gives pKd = 6.88

---

# target-system: DABCYL-RRE RNA
# assay-procedure: Quenching of TAMRA-labelled Rev peptide by DABCYL-RRE RNA
# Format: binding, HIV
# settings: 20 nM TAMRA-Rev, increasing DABCYL-RRE, FIG. 21
Ends that are not written are not given here. TAMRA = tetramethylrhodamine (fluorescent label)
reported-property: Kd (µM)
Only the number, expressed in µM, is required.

For TAMRA-Asp-Thr-Arg-Gln-Ala-Arg-Arg-Asn-Arg-Arg-Arg-Arg-Trp-Arg-Glu Arg-Gln-Arg ({TAMRA}-DTRQARRNRRRRWRERQR) [TAMRA-Rev] the substance record lists Kd as 0.137

---

Overview of reported Kd across a group of substances:
# target-system: ss-19mer RNA
# assay-procedure: Dabcyl-peptide binding to Fam-labelled RNA (quenching), single stranded RNA
# settings: ss-19mer, 110 mM KCl
Ends that are not written are not given here. * marks the point of attachment. DABCYL = CN(C)c1ccc(/N=N/c2ccc(C(=O)*)cc2)cc1

library peptide Dabcyl-Thr-Arg-Lys-X-X-X-X-X-Arg-Lys-Ser-Gly with X5 = KKKQR :: > 500 nM

library peptide Dabcyl-Thr-Arg-Lys-X-X-X-X-X-Arg-Lys-Ser-Gly with X5 = RRRRR on ss-19mer RNA gives Kd = 194 nM

DABCYL-Phe-Thr-Thr-Lys-Ala-Leu-Gly-Ile-Ser-Tyr-Gly-Arg-Lys-Lys-Arg-Arg-Gln-Arg-Arg-Arg-Pro-Pro-Gln-Gly-Ser-Gln-Thr-His-Gln-Val-Ser-Leu-Ser-Lys-Gln ({DABCYL}-FTTKALGISYGRKKRRQRRRPPQGSQTHQVSLSKQ) [DABCYL-ADP-1] on ss-19mer RNA gives Kd = 511 nM

library peptide Dabcyl-Thr-Arg-Lys-X-X-X-X-X-Arg-Lys-Ser-Gly with X5 = KKRQR on ss-19mer RNA gives Kd = > 500 nM

library peptide Dabcyl-Thr-Arg-Lys-X-X-X-X-X-Arg-Lys-Ser-Gly with X5 = QQQQQ on ss-19mer RNA gives Kd = > 500 nM

library peptide Dabcyl-Thr-Arg-Lys-X-X-X-X-X-Arg-Lys-Ser-Gly with X5 = KKQRR on ss-19mer RNA gives Kd = > 500 nM

library peptide Dabcyl-Thr-Arg-Lys-X-X-X-X-X-Arg-Lys-Ser-Gly with X5 = KKKKK on ss-19mer RNA gives Kd = > 500 nM

library peptide Dabcyl-Thr-Arg-Lys-X-X-X-X-X-Arg-Lys-Ser-Gly with X5 = KKQKR on ss-19mer RNA gives Kd = > 500 nM

---

# target-system: RRE RNA
# assay-procedure: Dabcyl-peptide binding to Fam-labelled RNA (quenching), RRE
# Design: species or system HIV
# settings: RRE, 110 mM KCl
reported-property: pKd
Note: pKd values are expressed as the negative base-10 logarithm of concentration in M.

library peptide Dabcyl-Thr-Arg-Lys-X-X-X-X-X-Arg-Lys-Ser-Gly with X5 = KKQKR on RRE RNA gives pKd = 7.82

---

# target-system: DABCYL-TAR RNA
# assay-procedure: Quenching of TAMRA-labelled Rev peptide by DABCYL-TAR RNA
# Type: binding, HIV
# settings: 20 nM TAMRA-Rev, increasing DABCYL-TAR, FIG. 22
Ends that are not written are not given here. TAMRA = tetramethylrhodamine (fluorescent label)
reported-property: Kd (µM)
Only the number, expressed in µM, is required.

For TAMRA-Asp-Thr-Arg-Gln-Ala-Arg-Arg-Asn-Arg-Arg-Arg-Arg-Trp-Arg-Glu Arg-Gln-Arg ({TAMRA}-DTRQARRNRRRRWRERQR) [TAMRA-Rev] the substance record lists Kd as 11

---

# target-system: TAR bulge RNA
# assay-procedure: Dabcyl-peptide binding to Fam-labelled RNA (quenching), TAR
# Parameters: species or system HIV
# settings: 110 mM KCl
Overview of reported pKd across a group of substances:
Note: pKd values are expressed as the negative base-10 logarithm of concentration in M.

Study these solved cases before continuing.
library peptide Dabcyl-Thr-Arg-Lys-X-X-X-X-X-Arg-Lys-Ser-Gly with X5 = KKKKK :: 7.62
library peptide Dabcyl-Thr-Arg-Lys-X-X-X-X-X-Arg-Lys-Ser-Gly with X5 = KQKRR :: 7.96
library peptide Dabcyl-Thr-Arg-Lys-X-X-X-X-X-Arg-Lys-Ser-Gly with X5 = KKKQR :: 7.57
library peptide Dabcyl-Thr-Arg-Lys-X-X-X-X-X-Arg-Lys-Ser-Gly with X5 = KKQKR :: 7.25

For library peptide Dabcyl-Thr-Arg-Lys-X-X-X-X-X-Arg-Lys-Ser-Gly with X5 = KQKKR the substance record lists pKd as 7.80

For library peptide Dabcyl-Thr-Arg-Lys-X-X-X-X-X-Arg-Lys-Ser-Gly with X5 = KQRQR the substance record lists pKd as 8.05

---

# target-system: TAR RNA
# assay-procedure: Competition binding assay, FAM-labelled TAR RNA Duplex-1 / TAMRA-labelled ADP-1
# Set-up: species or system HIV
# settings: 2 nM FAM-labelled TAR RNA, 18 nM unlabelled TAR RNA, 20 nM TAMRA-labelled ADP-1; read-out: Ki for the unlabelled ADP-1 competitor
reported-property: pKi
Note: pKi values are expressed as the negative base-10 logarithm of concentration in M.

For ADP-1: unlabelled peptide derived from HIV Tat, residues 37 to 72 (SEQ ID NO: 7) (FTTKALGISYGRKKRRQRRRPPQGSGTHQVSLSKQ; Human immunodeficiency virus) the substance record lists pKi as 7.00

---

Overview of reported Kd across a group of substances:
# target-system: RRE RNA
# assay-procedure: Dabcyl-peptide binding to Fam-labelled RNA (quenching), RRE
# Design: species or system HIV
# settings: RRE, 110 mM KCl
Ends that are not written are not given here. * marks the point of attachment. DABCYL = CN(C)c1ccc(/N=N/c2ccc(C(=O)*)cc2)cc1
Write down the value, and be sure its unit follows.

library peptide Dabcyl-Thr-Arg-Lys-X-X-X-X-X-Arg-Lys-Ser-Gly with X5 = KKKQR :: 30 nM
library peptide Dabcyl-Thr-Arg-Lys-X-X-X-X-X-Arg-Lys-Ser-Gly with X5 = KKRQR :: 24 nM
library peptide Dabcyl-Thr-Arg-Lys-X-X-X-X-X-Arg-Lys-Ser-Gly with X5 = RRRRR :: 30 nM
library peptide Dabcyl-Thr-Arg-Lys-X-X-X-X-X-Arg-Lys-Ser-Gly with X5 = KKQRR :: 20 nM
DABCYL-Phe-Thr-Thr-Lys-Ala-Leu-Gly-Ile-Ser-Tyr-Gly-Arg-Lys-Lys-Arg-Arg-Gln-Arg-Arg-Arg-Pro-Pro-Gln-Gly-Ser-Gln-Thr-His-Gln-Val-Ser-Leu-Ser-Lys-Gln ({DABCYL}-FTTKALGISYGRKKRRQRRRPPQGSQTHQVSLSKQ) [DABCYL-ADP-1] :: 39 nM

Kindly review the next substance as well.
For library peptide Dabcyl-Thr-Arg-Lys-X-X-X-X-X-Arg-Lys-Ser-Gly with X5 = KKKKK the substance record lists Kd as 12 nM
